All figures here come from the Human Domainome abundance scans (Beltran et al. 2025).

B1: Triacylglycerol hydrolase DDHD2, residues 389 to 447; numbered along this chain, O94830 (parent)
chain: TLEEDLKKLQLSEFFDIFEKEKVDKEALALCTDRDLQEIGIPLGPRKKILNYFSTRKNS

variants of: B1; assay: abundance fitness (aPCA) (normalised: wild type 0, dead -1); higher = more abundant; growth selection in yeast, the domain comes from the species named; details: Homo sapiens
Kind request: treat -0.1 as inclusive, so abundance fitness at -0.1 or higher is true, anything lower is false.

abundance fitness >= -0.1 for TLEEDLKKLQLSEFFDIFEKEKVDKEALALCTDRDLQEIGIKLGPRKKILNYFSTRKNS [P42K] ?
false

abundance fitness >= -0.1 for TLEEDLKKLQLSEFFDIFEKEKVDKEALALCTDRHLQEIGIPLGPRKKILNYFSTRKNS [D35H] ?
true

Textbook exercise: given the entry TLEEDLKKLQLSMFFDIFEKEKVDKEALALCTDRDLQEIGIPLGPRKKILNYFSTRKNS [E13M] , state whether its abundance fitness is greater than or equal to -0.1.
false

Would you say TLEEDLKKLQLSEFFDIFEKEKVDKEALALCTDRDLQEIGIPLGPRFKILNYFSTRKNS [K47F] shows abundance fitness at minimum -0.1?
false

Dear colleague, could you confirm whether TLEEDLKKLQLSEFFDIFEVEKVDKEALALCTDRDLQEIGIPLGPRKKILNYFSTRKNS [K20V] has abundance fitness at or above -0.1?
false

Quick check, abundance fitness >= -0.1? TLEEDLKKLQLSEFFDIFEKEKVDKEALALCTDRDLQEIGIPLGPGKKILNYFSTRKNS [R46G]
false

Has TLEEKLKKLQLSEFFDIFEKEKVDKEALALCTDRDLQEIGIPLGPRKKILNYFSTRKNS [D5K] a recorded abundance fitness greater than or equal to -0.1?
false

Could you verify whether the entry QLEEDLKKLQLSEFFDIFEKEKVDKEALALCTDRDLQEIGIPLGPRKKILNYFSTRKNS [T1Q] shows abundance fitness of no less than -0.1?
false

Form field: abundance fitness at least -0.1? Entry: TLEEDLKKLQLSEFFDIFEKEKVDKEAWALCTDRDLQEIGIPLGPRKKILNYFSTRKNS [L28W]
false

Tell me whether abundance fitness is at least -0.1 here: TLEEDLKKLQLSEFFDIFEKEKVDKEALALCTDRDLQEIGIPLGPRKKILNYFHTRKNS [S54H]
false

Item TLEEDLKKLQLSEFFDIFEKWKVDKEALALCTDRDLQEIGIPLGPRKKILNYFSTRKNS [E21W] with abundance fitness of -0.1 or above?
true

Is reported abundance fitness greater than or equal to -0.1 here: TLEEDLKKLQLSEFFDIFEKEKVDKEALALCTDRDLQEIRIPLGPRKKILNYFSTRKNS [G40R]
false

Textbook exercise: given the entry TLEEDLKKLQLSEFFDIFEKEKVDKEALALCTDRDLQEIGIPLGPRKKILNYFSHRKNS [T55H] , state whether its abundance fitness is greater than or equal to -0.1.
false

Assess whether reported abundance fitness for TLEEDLKKLQLSEFFDIFEKEKVDKRALALCTDRDLQEIGIPLGPRKKILNYFSTRKNS [E26R] sits at -0.1 or higher.
true

Evaluate TLEEDLKKLQLSEFFDIFEKEKVCKEALALCTDRDLQEIGIPLGPRKKILNYFSTRKNS [D24C] : abundance fitness at minimum -0.1?
true

Threshold query (abundance fitness >= -0.1) on TLEEDLKKLQLSEFFDIFEKEKVDKEALALCTDRDLQEIGIPLGPRKKILNYFSTRKNK [S59K]
false

API: above_or_equal(metric=abundance fitness, cutoff=-0.1) for item TLEEDLKKLQLSEFFDIFEKEKVDKEALALCTDRDLQEIGIPMGPRKKILNYFSTRKNS [L43M]
true

Check this variant for abundance fitness at or above -0.1: TLEEDLKKLQLSEFFDIFEKEKVDKEALALCTDRDLQEWGIPLGPRKKILNYFSTRKNS [I39W]
true

Record TLEEDLKKLQLSEFFGIFEKEKVDKEALALCTDRDLQEIGIPLGPRKKILNYFSTRKNS [D16G] ; criterion: abundance fitness no lower than -0.1. Met?
true

Could you verify whether the entry TLEEDLKKLQLSEFFDIFEKEKVDKEALALCTDRDLQEILIPLGPRKKILNYFSTRKNS [G40L] shows abundance fitness of no less than -0.1?
false

Can TLEEDLKKLQLSEFFDIFEKEKVDKEALALCTDRDLQEIGIALGPRKKILNYFSTRKNS [P42A] be said to have abundance fitness at or above -0.1?
false

Item TLEEDLKKLQLSEFFDIMEKEKVDKEALALCTDRDLQEIGIPLGPRKKILNYFSTRKNS [F18M] with abundance fitness of -0.1 or above?
false
